So I've got a bunch of compounds here, and I need their IC50 values.
- Assay Target: Delta-type opioid receptor (Mus musculus)
- Sequence (P32300 whole entry): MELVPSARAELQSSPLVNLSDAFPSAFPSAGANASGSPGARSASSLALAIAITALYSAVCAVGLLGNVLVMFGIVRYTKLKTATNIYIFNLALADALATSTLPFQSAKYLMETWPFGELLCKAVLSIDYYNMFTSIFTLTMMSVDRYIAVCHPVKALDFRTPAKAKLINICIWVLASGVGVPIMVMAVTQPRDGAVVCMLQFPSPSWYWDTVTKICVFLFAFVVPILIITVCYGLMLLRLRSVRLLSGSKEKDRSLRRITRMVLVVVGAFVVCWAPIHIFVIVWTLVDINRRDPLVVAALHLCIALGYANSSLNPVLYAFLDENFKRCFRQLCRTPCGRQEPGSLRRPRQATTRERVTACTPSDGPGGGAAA
- Assay Info: Binding affinity was measured in cloned Opioid receptor delta 1 expressed in CHO cells using [3H]- DPDPE as radioligand.
Square brackets hold non-standard residues; d marks the D form. Peptide text beside a SMILES is read from it. * marks the point of attachment. Tyr(Nα,Nα-Bn2) = O=C([C@H](Cc1ccc(O)cc1)N(Cc1ccccc1)Cc1ccccc1)*; Phe(4-NH2) = Nc1ccc(C[C@H](N)C(=O)O)cc1; BrAc = O=C(CBr)*
Answers are plain numbers, in nM.

// below: answered compounds
# Compound, Readout Units, Observed Value
records = [
    ("CC(C)C[C@H](NC(=O)[C@H](Cc1ccc(NC(=O)CBr)cc1)NC(=O)CNC(=O)CNC(=O)[C@H](Cc1ccc(O)cc1)N(Cc1ccccc1)Cc1ccccc1)C(=O)O ({Tyr(Nα,Nα-Bn2)}-GG[Phe(4-NH2)](BrAc)L-OH)", "nM", 149),
    ("CC(C)C[C@H](NC(=O)[C@H](Cc1ccccc1)NC(=O)CNC(=O)CNC(=O)[C@H](Cc1ccc(O)cc1)N(Cc1ccccc1)Cc1ccccc1)C(=O)O (HELM PEPTIDE1{[O=C([C@H](Cc1ccc(O)cc1)N(Cc1ccccc1)Cc1ccccc1)[*:2]].G.G.F.L}$$$$V2.0)", "nM", 78.2),
    ("C=CCN(CC=C)[C@@H](Cc1ccc(O)cc1)C(=O)NC(C)(C)C(=O)NC(C)(C)C(=O)N[C@@H](Cc1ccccc1)C(=O)N[C@@H](CC(C)C)C(=O)O (HELM PEPTIDE1{[C=CCN(CC=C)[C@@H](Cc1ccc(O)cc1)C(=O)[*:2]].[Aib].[Aib].F.L}$$$$V2.0)", "nM", 703),
]

Consider the additional compound presented here.
The recorded IC50 for CC(C)C[C@H](NC(=O)[C@H](Cc1ccc(NCCl)cc1)NC(=O)CNC(=O)CNC(=O)[C@H](Cc1ccc(O)cc1)N(Cc1ccccc1)Cc1ccccc1)C(=O)O is 145
